- Measurement target: Gap1 (general amino acid permease) (Saccharomyces cerevisiae, UniProt P19145)
- Sequence (P19145 whole entry): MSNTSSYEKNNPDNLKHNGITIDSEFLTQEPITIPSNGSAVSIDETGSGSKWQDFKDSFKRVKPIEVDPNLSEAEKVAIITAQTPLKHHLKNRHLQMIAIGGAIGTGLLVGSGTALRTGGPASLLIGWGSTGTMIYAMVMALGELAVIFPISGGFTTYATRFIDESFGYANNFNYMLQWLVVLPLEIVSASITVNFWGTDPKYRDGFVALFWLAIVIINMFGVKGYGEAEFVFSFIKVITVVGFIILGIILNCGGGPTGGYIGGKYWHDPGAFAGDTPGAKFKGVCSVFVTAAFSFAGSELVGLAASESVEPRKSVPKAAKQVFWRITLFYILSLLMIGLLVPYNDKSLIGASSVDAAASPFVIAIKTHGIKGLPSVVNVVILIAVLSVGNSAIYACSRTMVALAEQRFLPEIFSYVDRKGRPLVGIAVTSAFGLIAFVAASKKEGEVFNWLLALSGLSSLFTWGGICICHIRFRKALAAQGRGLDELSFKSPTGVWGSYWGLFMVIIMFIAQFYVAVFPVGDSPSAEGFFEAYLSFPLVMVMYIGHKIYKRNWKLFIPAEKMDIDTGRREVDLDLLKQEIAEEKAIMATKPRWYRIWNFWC
- Assay explanation: inhibition of […]-L-citrulline uptake in intact yeast
Property measured: Ki (µM)

Molecule: N[C@@H](Cc1c[nH]c2ccccc12)C(=O)O [L-tryptophan]
Readout units: µM
Reported value: 3.3

Molecule: NCCCC[C@H](N)C(=O)O [L-lysine]
Readout units: µM
Reported value: 9.5

Molecule: N[C@@H](Cc1c[nH]cn1)C(=O)O [L-histidine]
Readout units: µM
Reported value: 2.5
